- Test system: NCI-H322M
- assay_comment: Antiproliferative activity against human NCI-H322M cells assessed as cell growth inhibition at 10 uM incubated for 48 hrs by sulforhodamine B assay relative to control
- Assay type: functional
experimental_readout: inhibition at 10 µM (%)
Write down the numeric answer in % and omit the unit.

Example molecules with recorded inhibition at 10 µM:
- query_smiles: "O=Cc1ccc(-c2cn3ccnc3c(-c3ccc4ncn(Cc5ccccc5)c4c3)n2)cc1"
  inhibition at 10 µM / %: 11.2
- query_smiles: "O=Cc1ccc(-c2cn3ccnc3c(-c3ccc4ncn(C5CCCCC5)c4c3)n2)cc1"
  inhibition at 10 µM / %: 11.2
- query_smiles: "c1ccc2c(-c3cn4ccnc4c(-c4ccc5ncn(C6CCCCC6)c5c4)n3)cccc2c1"
  inhibition at 10 µM / %: 4.74
- query_smiles: "c1ccc(Cn2cnc3ccc(-c4nc(-c5ccc6c(c5)ncn6C5CCCCC5)cn5ccnc45)cc32)cc1"
  inhibition at 10 µM / %: 84

Moving on to another molecule below.
# inhibition at 10 µM lookup, item CCc1ccc(-c2cn3ccnc3c(-c3ccc4ncn(Cc5ccccc5)c4c3)n2)cc1
0.89

---

- Tested on: 786-0
- assay_comment: Antiproliferative activity against human 786-0 cells assessed as cell growth inhibition at 10 uM incubated for 48 hrs by sulforhodamine B assay relative to control
- Format: functional
Where inhibition at 10 µM equals or exceeds 10%, the correct label is fulfilled; where it does not, the label is not fulfilled.

- query_smiles: "COc1ccc(-c2cn3ccnc3c(-c3ccc4ncn(C5CCCCC5)c4c3)n2)cc1"
  group_label: "fulfilled"
- query_smiles: "O=Cc1ccc(-c2cn3ccnc3c(-c3ccc4ncn(Cc5ccccc5)c4c3)n2)cc1"
  group_label: "fulfilled"
- query_smiles: "c1csc(-c2cn3ccnc3c(-c3ccc4ncn(C5CCCCC5)c4c3)n2)c1"
  group_label: "not fulfilled"
- query_smiles: "CCc1ccc(-c2cn3ccnc3c(-c3ccc4ncn(Cc5ccccc5)c4c3)n2)cc1"
  group_label: "fulfilled"
- query_smiles: "c1ccc(-c2cn3ccnc3c(-c3ccc4ncn(C5CCCCC5)c4c3)n2)cc1"
  group_label: "fulfilled"

Record c1ccc(Cn2cnc3ccc(-c4nc(-c5ccc6c(c5)ncn6C5CCCCC5)cn5ccnc45)cc32)cc1 ; criterion: inhibition at 10 µM no lower than 10%. Met?
not fulfilled

Next compound up: Fc1ccc(-c2cn3ccnc3c(-c3ccc4ncn(C5CCCCC5)c4c3)n2)cc1
fulfilled

Next compound up: c1cn2cc(-c3ccsc3)nc(-c3ccc4ncn(C5CCCCC5)c4c3)c2n1
not fulfilled

Next compound up: c1ccc2c(-c3cn4ccnc4c(-c4ccc5ncn(C6CCCCC6)c5c4)n3)cccc2c1
not fulfilled

---

- System: COLO 205
- assay_comment: Antiproliferative activity against human COLO 205 cells assessed as cell growth inhibition at 10 uM incubated for 48 hrs by sulforhodamine B assay relative to control
- Type: functional
Quick reference for inhibition at 10 µM among some compounds
Write down the numeric answer in % and omit the unit.

- query_smiles: "c1cn2cc(-c3ccc4c(c3)ncn4C3CCCCC3)nc(-c3ccc4ncn(C5CCCCC5)c4c3)c2n1"
  target_under_test: "COLO 205"
  quantity_unit: "%"
  inhibition at 10 µM: 6.71
- query_smiles: "c1cn2cc(-c3ccc4ncn(C5CCCCC5)c4c3)nc(-c3ccc4ncn(C5CCCCC5)c4c3)c2n1"
  target_under_test: "COLO 205"
  quantity_unit: "%"
  inhibition at 10 µM: 22.4
- query_smiles: "CCc1ccc(-c2cn3ccnc3c(-c3ccc4ncn(Cc5ccccc5)c4c3)n2)cc1"
  target_under_test: "COLO 205"
  quantity_unit: "%"
  inhibition at 10 µM: 34.2
- query_smiles: "COc1ccc(-c2cn3ccnc3c(-c3ccc4ncn(C5CCCCC5)c4c3)n2)cc1"
  target_under_test: "COLO 205"
  quantity_unit: "%"
  inhibition at 10 µM: -8.01
- query_smiles: "Cc1cccc(-c2cn3ccnc3c(-c3ccc4ncn(Cc5ccccc5)c4c3)n2)c1"
  target_under_test: "COLO 205"
  quantity_unit: "%"
  inhibition at 10 µM: 11.3
- query_smiles: "c1ccc(Cn2cnc3ccc(-c4nc(-c5ccc6c(c5)ncn6C5CCCCC5)cn5ccnc45)cc32)cc1"
  target_under_test: "COLO 205"
  quantity_unit: "%"
  inhibition at 10 µM: -29.9

# inhibition at 10 µM lookup, item c1ccc(-c2cn3ccnc3c(-c3ccc4ncn(C5CCCCC5)c4c3)n2)cc1
20.7
